Record form. Attribute: log10 Kd. Fill in for each entry.
Biological target: T1, DENV-4 nonstructural protein 1 (NS1), recombinant (Dengue virus 4, strain …, UniProt P09866)
T1 construct: also called DENV-4 NS1; NS1 from DENV-4; source: bought: Native Antigen Company (recombinant)
T1 sequence (P09866 775-1126): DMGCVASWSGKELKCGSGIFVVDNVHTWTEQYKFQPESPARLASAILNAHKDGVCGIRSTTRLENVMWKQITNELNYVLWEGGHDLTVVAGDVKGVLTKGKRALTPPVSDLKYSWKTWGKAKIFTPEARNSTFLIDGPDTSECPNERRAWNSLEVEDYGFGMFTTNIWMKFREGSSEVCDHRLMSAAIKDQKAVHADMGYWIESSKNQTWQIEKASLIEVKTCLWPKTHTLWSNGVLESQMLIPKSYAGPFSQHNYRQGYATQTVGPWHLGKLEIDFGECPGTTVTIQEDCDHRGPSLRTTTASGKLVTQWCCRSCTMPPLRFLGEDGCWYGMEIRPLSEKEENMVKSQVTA
Assay: SPR
Conditions: both partners purified
Annotation: log10 of Kd, nM basis.

Look up and state reported log10 Kd for sdAb DH4 (VHH, source: E. coli Turner (DE3), pET22b, periplasmic, purified (Ni-Sepharose, SEC)) VHH: DVQLQASGGGVVQAGGSLRVSCAATGIAFASYAVAWYRQAPGKQREWVATVGGLGGTKYVDSVRGRFTISRDNAKNAVTLQMNSLKPEDTAVYYCAAVEWDDGHYYWDTWGQGTRVTVSA
0.93

Look up and state reported log10 Kd for sdAb DC4 (VHH, source: E. coli Turner (DE3), pET22b, periplasmic, purified (Ni-Sepharose, SEC)) VHH: EVQLQASGGGLVQAGGSLRLSCAASERTFSHYFVGWFRQAPGKEREFVARITWSGSNVEYEDAVKDRFTLSSDNAKNTVYLHMNSLKPEDTAVYYCAAANTIWTPTIRDYNVWGQGTQVTVSS
1.63

Look up and state reported log10 Kd for sdAb DD7 (VHH, source: E. coli Turner (DE3), pET22b, periplasmic, purified (Ni-Sepharose, SEC)) VHH: EVQLVQSGGGSVQAGGSLRLSCAHSSITVPDYTIGWFRRAPGKGGEEVSLISMHGGRSWYAGSVKGRFAISRDSVKNTVYLQMNNLKPEDTDIYYCGGTTFGLAAAPNEYDSWGQGSQVTVSS
0.38

Look up and state reported log10 Kd for sdAb DD6 (VHH, source: E. coli Turner (DE3), pET22b, periplasmic, purified (Ni-Sepharose, SEC)) VHH: EVQLQASGGGSVQAGGSLRLSCAHSSITVPDYTIGWYRRAPGKGGEEVSLISMHGGRTWYAGSVKGRFAISRDSVKNTVYLQMNNLKPEDTDIYYCGGTTFGLAAAPNEYDSWGQGSQVTVSS
0.40

Look up and state reported log10 Kd for sdAb DD5 (VHH, source: E. coli Turner (DE3), pET22b, periplasmic, purified (Ni-Sepharose, SEC)) VHH: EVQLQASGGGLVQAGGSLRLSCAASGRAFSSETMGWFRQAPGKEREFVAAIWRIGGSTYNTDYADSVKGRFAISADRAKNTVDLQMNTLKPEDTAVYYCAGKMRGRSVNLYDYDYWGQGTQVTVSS
1.38

Look up and state reported log10 Kd for sdAb DD1 (VHH, source: E. coli Turner (DE3), pET22b, periplasmic, purified (Ni-Sepharose, SEC)) VHH: EVQLQASGGGLVQAGGSLRVSCAATGIAFASYAVAWYRQAPGKQREWVATVGGLGGTKYVDSVKGRFTISRDNAKNAVTLQMNSLKPEDTAVYYCAAVEWDDGHYYWDTWGQGTRVTVSA
0.89

Look up and state reported log10 Kd for sdAb DH12 (VHH, source: E. coli Turner (DE3), pET22b, periplasmic, purified (Ni-Sepharose, SEC)) VHH: EVQLVESGGGSVQAGGSLRLSCAASERTFSYYFMGWFRQAPGKEREWVARIRWNGDGADYTDAVKDRFTISSDHAKNTVYLQMNSLKPEDTAVYYCAAANSIWKPTTRDYNYWGQGTQVSVSS
1.32

Look up and state reported log10 Kd for sdAb DD9 (VHH, source: E. coli Turner (DE3), pET22b, periplasmic, purified (Ni-Sepharose, SEC)) VHH: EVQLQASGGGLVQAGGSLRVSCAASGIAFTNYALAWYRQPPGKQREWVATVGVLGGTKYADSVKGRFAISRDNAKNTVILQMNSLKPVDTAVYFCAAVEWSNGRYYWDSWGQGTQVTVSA
1.54

Look up and state reported log10 Kd for sdAb DC7 (VHH, source: E. coli Turner (DE3), pET22b, periplasmic, purified (Ni-Sepharose, SEC)) VHH: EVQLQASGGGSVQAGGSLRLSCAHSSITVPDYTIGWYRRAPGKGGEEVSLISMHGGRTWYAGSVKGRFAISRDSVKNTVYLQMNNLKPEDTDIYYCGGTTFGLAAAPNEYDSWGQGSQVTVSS
0.34

Source: paper PMC6308234
